Test system: ATP;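 also: ATP exposure 15 min at 22 °C before imaging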
Test: switch fluorescence ratio, 500 uM ATP over buffer (Cy3 cluster intensity, sum of 5 cycles each) (fold (ratio)); higher = stronger signal-on switching upon ATP binding; sequences stand for … in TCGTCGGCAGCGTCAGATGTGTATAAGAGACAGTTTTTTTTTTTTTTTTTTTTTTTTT…TC
Conditions: aptamer strand: ATP DNA aptamer (quencher-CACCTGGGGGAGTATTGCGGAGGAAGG + anchor), 100 nM annealed; ATP concentration: 500 uM
Rule: switch fluorescence ratio of 1 or more gives true; anything lower gives false.

>>> assigned_label("CAGTCCGGTC")
"true"
>>> assigned_label("ACGCCCATTT")
"true"
>>> assigned_label("TGAGAAGCAA")
"true"
>>> assigned_label("TTTGACGACA")
"true"
>>> assigned_label("CGGGGGGCCC")
"false"
>>> assigned_label("AGGCCACCTT")
"true"
>>> assigned_label("ACCTGGGCAG")
"true"
>>> assigned_label("CTAGGCACAT")
"true"
>>> assigned_label("AGTCGACTGT")
"false"
>>> assigned_label("CGGAATAGCT")
"true"
>>> assigned_label("TATACGGGTG")
"true"
>>> assigned_label("GGGCGGCCTT")
"true"
>>> assigned_label("ACACAGTAGT")
"true"
>>> assigned_label("GAGTAGAGTG")
"false"
>>> assigned_label("ACAACTCAGG")
"true"
>>> assigned_label("ATCGTTCTGC")
"true"
>>> assigned_label("TTTCCTCAG")
"true"
>>> assigned_label("GTAGGGGATT")
"true"
>>> assigned_label("ATATAAGTTC")
"true"
>>> assigned_label("GAAAAAGGTT")
"false"
>>> assigned_label("GATGTAGCTA")
"true"
>>> assigned_label("TCGCTTTGCT")
"true"
>>> assigned_label("ATATACGTTG")
"true"
>>> assigned_label("TGAATCGTTT")
"false"

Where do these numbers come from? They come from the supplement of paper PMC10126150.
